- Tested on: JJN-3 (NIK translocated) multiple myeloma cells
- MEASUREMENT NOTES: Antiproliferative activity on JJN-3 multiple myeloma cells (CellTiter-Glo, 96 hr), Biological Assay C
- Assay type: cell-based, human
- MEASUREMENT CONDITIONS: Homo sapiens, JJN-3, 96 h, JJN-3 (NIK translocated) cells, averaged values, read-out: JJN-3 Proliferation inhibition (IC50 (nM))
PROPERTY: IC50 (nM)
Respond numerically; units are nM and should not be typed.

Solved entries (count: 5):
| MOLECULE | VALUE |
| --- | --- |
| COCCOc1ccc(Cl)cc1Nc1nccc(-c2cc(C#N)c3c(c2)[C@@](C)(CO)CN3)n1 | 490 |
| COc1cc(C(=O)N2CCCC(O)CC2)c(Cl)cc1Nc1nccc(-c2cc(C#N)c3c(c2)C(C)(C)CN3)n1 (centres unmarked) | 28 |
| CC1(CO)CNc2c(C#N)cc(-c3ccnc(Nc4cc(C(F)(F)F)ccc4OCCO)n3)cc21 (centres unmarked) | 182 |
| CC1(CO)CNc2c(C#N)cc(-c3ccnc(Nc4ccc(C5CCOCC5)c(C(F)(F)F)c4)n3)cc21 (centres unmarked) | 51 |
| COc1cc(C(=O)N2CC3(CCCNC3)C2)c(Cl)cc1Nc1nccc(-c2cc(C#N)c3c(c2)C(C)(C)CN3)n1 | 28 |

Give the measured IC50 of `COc1cc(N2CCOCC2)c(Cl)cc1Nc1nccc(-c2cc(C#N)c3c(c2)C(C)(C)CN3)n1` .
91

* * *

Measured IC50 of individual entries
- Tested on: JJN-3 (NIK translocated) multiple myeloma cells
- MEASUREMENT NOTES: Antiproliferative activity on JJN-3 multiple myeloma cells (CellTiter-Glo, 96 hr), Biological Assay C
- Assay type: cell-based, human
- MEASUREMENT CONDITIONS: Homo sapiens, JJN-3, 96 h, JJN-3 (NIK translocated) cells, averaged values, read-out: JJN-3 Proliferation inhibition (IC50 (nM))
Respond numerically; units are nM and should not be typed.

Solved entries (count: 2):
| SUBSTANCE SMILES | PROPERTY | VALUE |
| --- | --- | --- |
| COc1cc(S(C)(=O)=O)c(Cl)cc1Nc1nccc(-c2cc(C#N)c3c(c2)C(C)(C)CN3)n1 | IC50 | 57 |
| CC(C)Oc1ccc(Cl)cc1Nc1nccc(-c2cc(C#N)c3c(c2)C(C)(C)CN3)n1 | IC50 | 3550 |

// next item, IC50 requested
Give the measured IC50 of `Cc1c(CN2CC(F)(F)C2)cc(C#N)cc1Nc1nccc(-c2cc(C#N)c3c(c2)[C@@](C)(CO)CN3)n1` .
14

* * *

With a cut-off of 200 °C, any melting point strictly below it is called Yes; any melting point meeting it or above is called No.

| COMPOUND | LABEL VALUE |
| --- | --- |
| CC1(CO)CNc2c(C#N)cc(-c3ccnc(Nc4cc(Cl)ccc4OCCO)n3)cc21 (stereo not shown) | No |
| Cc1ccc(C2CCN(C)CC2)cc1Nc1nccc(-c2cc(C#N)c3c(c2)[C@@](C)(CO)CN3)n1 | No |
| Cc1ccc(C#N)cc1Nc1nccc(-c2cc(C#N)c3c(c2)[C@@](C)(COS(=O)(=O)O)CN3)n1 | No |

Input CC1(CO)CNc2c(C#N)cc(-c3ccnc(Nc4cc(C#N)ccc4CN4CC(F)C4)n3)cc21 (stereo not shown) ; condition: melting point strictly below 200 °C. Does it hold?
Yes

Input Cc1ccc(C#N)cc1Nc1nccc(-c2cc(C#N)c3c(c2)[C@@](C)(CO)CN3)n1 [Compound 131] ; condition: melting point strictly below 200 °C. Does it hold?
Yes

Input `C[C@]1(CO)CNc2c(C#N)cc(-c3ccnc(Nc4cc(C#N)ccc4OCCO)n3)cc21` ; condition: melting point strictly below 200 °C. Does it hold?
Yes

* * *

Measured IC50 of individual entries
- TGT: recombinant human NF-kappaB-inducing kinase (NIK/MAP3K14) (Homo sapiens, UniProt Q99558)
- Sequence (Q99558 whole entry): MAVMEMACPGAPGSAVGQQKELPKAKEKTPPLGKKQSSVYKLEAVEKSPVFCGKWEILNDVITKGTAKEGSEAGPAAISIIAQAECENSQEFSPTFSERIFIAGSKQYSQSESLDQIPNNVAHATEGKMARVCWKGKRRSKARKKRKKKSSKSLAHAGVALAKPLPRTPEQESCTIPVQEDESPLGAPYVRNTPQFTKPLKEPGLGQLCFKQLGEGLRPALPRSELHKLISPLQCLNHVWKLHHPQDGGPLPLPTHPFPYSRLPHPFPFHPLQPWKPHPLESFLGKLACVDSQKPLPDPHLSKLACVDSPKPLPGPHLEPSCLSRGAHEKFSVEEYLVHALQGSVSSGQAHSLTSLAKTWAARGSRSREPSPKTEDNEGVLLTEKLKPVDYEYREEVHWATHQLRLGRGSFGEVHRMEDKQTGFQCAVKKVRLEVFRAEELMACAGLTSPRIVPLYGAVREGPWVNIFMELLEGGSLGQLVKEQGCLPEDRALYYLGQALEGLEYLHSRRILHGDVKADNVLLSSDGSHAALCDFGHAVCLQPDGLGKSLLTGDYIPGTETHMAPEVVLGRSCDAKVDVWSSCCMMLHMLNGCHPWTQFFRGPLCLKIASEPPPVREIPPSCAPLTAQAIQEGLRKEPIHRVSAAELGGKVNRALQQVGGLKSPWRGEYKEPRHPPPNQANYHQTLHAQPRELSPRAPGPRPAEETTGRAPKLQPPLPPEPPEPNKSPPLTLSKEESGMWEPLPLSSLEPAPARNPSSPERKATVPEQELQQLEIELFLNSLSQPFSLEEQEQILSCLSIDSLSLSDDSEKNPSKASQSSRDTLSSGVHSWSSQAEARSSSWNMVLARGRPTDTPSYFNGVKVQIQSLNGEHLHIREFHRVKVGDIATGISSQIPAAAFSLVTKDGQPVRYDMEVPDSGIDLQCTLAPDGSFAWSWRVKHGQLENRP
- MEASUREMENT NOTES: Inhibition of auto-phosphorylation of recombinant human NIK/MAP3K14 activity (AlphaScreen), Biological Assay A
- Format: biochemical
- MEASUREMENT CONDITIONS: averaged values over all measurements on all batches
Respond numerically; units are nM and should not be typed.

| COMPOUND | VALUE |
| --- | --- |
| C[C@]1(CO)CNc2c(C#N)cc(-c3ccnc(Nc4cc(CO)c(F)cc4OC4CC4)n3)cc21 | 6.5 |
| Cc1ccc(-c2ccnn2C)cc1Nc1nccc(-c2cc(C#N)c3c(c2)[C@@](C)(CO)CN3)n1 | 34.7 |
| Cc1c(CN2CC(F)C2)cc(C#N)cc1Nc1nccc(-c2cc(C#N)c3c(c2)[C@@](C)(CO)CN3)n1 | 6.2 |

// map CCS(=O)(=O)N(C)c1cccc(Nc2nccc(-c3cc(C#N)c4c(c3)C(C)(CO)CN4)n2)c1 (stereo not shown) to recorded IC50 (system: recombinant human NF-kappaB-inducing kinase (NIK/MAP3K14) (Homo sapiens, UniProt Q99558))
2.5

* * *

PROPERTY: melting point
Just the number plus its unit, please.

| COMPOUND | melting point |
| --- | --- |
| C[C@]1(CO)CNc2c(C#N)cc(-c3ccnc(Nc4cc(C#N)c(C5CCOCC5)cc4OCC4CC4)n3)cc21 [Compound 19] | 284 °C |
| COCCOc1ccc(C#N)cc1Nc1nccc(-c2cc(C#N)c3c(c2)[C@@](C)(CO)CN3)n1 [Compound 66] | 165 °C |
| CC(C)Oc1ccc(Cl)cc1Nc1nccc(-c2cc(C#N)c3c(c2)C(C)(C)CN3)n1 [Compound 102] | 112 °C |

Give the measured melting point of Cc1ccc(C#N)cc1Nc1nccc(-c2cc(C#N)c3c(c2)[C@@](C)(COC(=O)CN2CCOCC2)CN3)n1 [Compound 146] .
186 °C

Give the measured melting point of Cc1ccc(CN2CCCC2)cc1Nc1nccc(-c2cc(C#N)c3c(c2)[C@@](C)(CO)CN3)n1 [Compound 216] .
108 °C

Give the measured melting point of [2H]C([2H])(O)[C@@]1(C)CNc2c(C#N)cc(-c3ccnc(Nc4cc(C#N)ccc4C)n3)cc21 [Compound 136] .
219 °C

Give the measured melting point of CN1CCCC(Oc2ccc(Cl)cc2Nc2nccc(-c3cc(C#N)c4c(c3)C(C)(CO)CN4)n2)C1 (mixture of isomers) [Compound 39] .
173 °C

* * *

- TGT: recombinant human NF-kappaB-inducing kinase (NIK/MAP3K14) (Homo sapiens, UniProt Q99558)
- MEASUREMENT NOTES: Inhibition of auto-phosphorylation of recombinant human NIK/MAP3K14 activity (AlphaScreen), Biological Assay A
- Format: biochemical
- MEASUREMENT CONDITIONS: averaged values over all measurements on all batches
Measured IC50 of individual entries
Just the number plus its unit, please.

| COMPOUND | IC50 |
| --- | --- |
| C[C@]1(CO)CNc2c(C#N)cc(-c3ccnc(Nc4ccccc4P(C)(C)=O)n3)cc21 [Compound 62] | 912 nM |
| Cc1c(Nc2nccc(-c3cc(C#N)c4c(c3)C(C)(CO)CN4)n2)cc(Cl)cc1C(=O)N1CCN(C)CC1 (centres unmarked) [Compound 58] | 2.6 nM |
| COc1cc(C(=O)N2CCCC(O)CC2)c(Cl)cc1Nc1nccc(-c2cc(C#N)c3c(c2)C(C)(C)CN3)n1 (centres unmarked) [Compound 119] | 7.1 nM |
| CC1(CO)CNc2c(C#N)cc(-c3ccnc(Nc4cc(C#N)ccc4CN4CC(F)C4)n3)cc21 (centres unmarked) [Compound 228] | 5.4 nM |
| Cc1ccc(CN2CCOCC2)c(Nc2nccc(-c3cc(C#N)c4c(c3)[C@@](C)(CO)CN4)n2)c1 [Compound 222] | 31.6 nM |
| CCN1CCN(c2cc(C)c(Nc3nccc(-c4cc(C#N)c5c(c4)C(C)(C)CN5)n3)cc2Cl)CC1 [Compound 91] | 7.2 nM |

Give the measured IC50 of COc1cc(C(=O)N2CC3(CCCNC3)C2)c(Cl)cc1Nc1nccc(-c2cc(C#N)c3c(c2)C(C)(C)CN3)n1 [Compound 113] .
2.6 nM

Give the measured IC50 of C[C@]1(CO)CNc2c(C#N)cc(-c3ccnc(Nc4cc(C#N)ccc4CCN4CC(F)C4)n3)cc21 [Compound 229] .
7.6 nM

* * *

Measured melting point of individual entries
Respond numerically; units are °C and should not be typed.

| COMPOUND | UNIT OF MEASURE | VALUE |
| --- | --- | --- |
| COc1cc(C(=O)N2CC3(CCCNC3)C2)c(Cl)cc1Nc1nccc(-c2cc(C#N)c3c(c2)C(C)(C)CN3)n1 | °C | 178 |

Give the measured melting point of COc1ccc(Cl)cc1Nc1nccc(-c2cc(C#N)c3c(c2)C(C)(CO)CN3)n1 (stereo not shown) .
239

Give the measured melting point of `Cc1cc(CCN2CC(F)C2)c(C#N)cc1Nc1nccc(-c2cc(C#N)c3c(c2)[C@@](C)(CO)CN3)n1` .
211

Give the measured melting point of CC1CN(Cc2ccc(Nc3nccc(-c4cc(C#N)c5c(c4)C(C)(CO)CN5)n3)cc2C(F)(F)F)CC(C)N1C (stereo not shown) .
190
